Listed next: entries and their corresponding log10 of Ki.
Biological target: DLK (Homo sapiens)
Construct: N-terminally GST-tagged DLK (catalytic domain amino acid 1-520) (Carna Bioscience); GST (N)
Sequence (Q12852 1-520): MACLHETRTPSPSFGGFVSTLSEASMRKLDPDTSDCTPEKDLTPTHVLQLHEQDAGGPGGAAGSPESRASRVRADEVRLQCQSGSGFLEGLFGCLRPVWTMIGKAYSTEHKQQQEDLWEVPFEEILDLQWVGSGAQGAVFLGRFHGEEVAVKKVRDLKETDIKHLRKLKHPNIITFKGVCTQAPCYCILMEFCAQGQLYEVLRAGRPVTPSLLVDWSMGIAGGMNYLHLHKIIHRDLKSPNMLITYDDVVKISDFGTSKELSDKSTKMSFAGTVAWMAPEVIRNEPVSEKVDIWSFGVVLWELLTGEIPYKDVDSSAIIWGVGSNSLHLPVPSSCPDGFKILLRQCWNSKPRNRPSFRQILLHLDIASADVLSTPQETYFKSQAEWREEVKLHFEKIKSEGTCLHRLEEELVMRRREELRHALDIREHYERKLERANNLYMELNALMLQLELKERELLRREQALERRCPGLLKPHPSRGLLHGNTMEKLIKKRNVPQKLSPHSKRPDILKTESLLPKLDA
Test: DLK TR-FRET assay
Conditions: 5 nM GST-tagged DLK (catalytic domain amino acid 1-520), 40 nM HIS-tagged MKK4 K131M substrate, 30 μM ATP, 60 minutes
Transform log10 | Measure Ki | Unit nM

• N#Cc1ccnc(Nc2cc(C3CCOCC3)cc(N3CC4CC3C4)n2)c1 = 1.06
• N#Cc1ccnc(Nc2cc(C3(C#N)CCOCC3)cc(Cl)n2)c1 = 2.28
• N#Cc1ccnc(Nc2cc(C3CCN(C4COC4)CC3)cc(N3CC4(CCC4(F)F)C3)n2)c1 = 0.61
• Cc1cc(C2CCN(C(=O)C(F)(F)F)CC2)cc(Nc2cc(C#N)ccn2)n1 = 2.08
• N#Cc1ccnc(Nc2cc(C3(C#N)CCOCC3)cc(N3CC(F)C3)n2)c1 = 1.11

Note: attention shifts to another entry.
Data request: Entry C[C@@H]1CCCN1c1cc(C2CCN(S(C)(=O)=O)CC2)cc(Nc2cc(C(F)(F)F)ccn2)n1 has what log10 of Ki?
Data returned: 0.82
